System: K-562 leukemia
experiment-summary: NCI-60 one-dose screen, 48 h (100 = growth as untreated, 0 = no growth, -100 = all killed)
details: 10 µM
About 83,000 compounds went through this panel and 20% of them were active in at least one assay; those are over-represented in the sample as a whole.
Overview of recorded growth for various compounds
Reply numerically in %, unit not repeated.

>  <compound>
Cc1ccc(S(=O)(=O)O)c(C)c1

>  <quantity>
growth

>  <readout-number>
98.8

$$$$

[ask] # lookup: growth of "CCOC(=O)CSc1c([N+](=O)[O-])ncn1C"
[reply] 109

[ask] # lookup: growth of "CN(c1ccccc1)c1ncnc2c1ncn2C"
[reply] 103

[ask] # lookup: growth of OCC(O)C(O)C(O)C(O)/C=N/O (configuration not stated)
[reply] 111

[ask] # lookup: growth of COc1ccc(C(C)C=O)cc1 (configuration not stated)
[reply] 104

[ask] # lookup: growth of "O=C(O)CSCSCC(=O)O"
[reply] 97.8

[ask] # lookup: growth of "O=[N+]([O-])c1ccccc1N=Nc1ccc(O)cc1O"
[reply] 120

---

System: 786-0 renal
experiment-summary: NCI-60 one-dose screen, 48 h (100 = growth as untreated, 0 = no growth, -100 = all killed)
details: 10 µM
Experimental: Cells are grown in 96 well plates and exposed to the test compound for 48 hours. Compounds are tested at a single concentration, which is 10^-5 M for most compounds. The reported endpoint is percent growth (GI% or GIPRCNT), where numbers from 0 - 100% represent growth inhibition, and numbers from -100% - 0 represent cell death. For example, a value of 40 represents 60% growth inhibition. A value of 0 means no net growth occurred over the course of the experiment. […]
About 83,000 compounds went through this panel and 20% of them were active in at least one assay; those are over-represented in the sample as a whole.
quantity: growth (%)
Reply numerically in %, unit not repeated.

>  <compound>
COc1cc2c(cc1OC)[C@H](C(=O)O)[C@@H](c1ccc(OC(C)C)c(OC)c1)N(C)C2=O

>  <quantity>
growth

>  <readout-number>
100

$$$$
>  <compound>
CC(C(=O)O)(C1CCCCC1)C1(O)CCCCC1 (stereo not drawn)

>  <quantity>
growth

>  <readout-number>
98.9

$$$$
>  <compound>
CC(CN1CCCCC1)NC(=O)c1scnc1-c1ccccc1 (stereo not drawn)

>  <quantity>
growth

>  <readout-number>
102

$$$$
>  <compound>
O=C(N/N=C\c1cc(Br)cc(Br)c1O)N/N=C/c1cc(Br)cc(Br)c1O

>  <quantity>
growth

>  <readout-number>
46.5

$$$$
>  <compound>
O=[N+]([O-])c1cccc2nsnc12

>  <quantity>
growth

>  <readout-number>
114

$$$$

[ask] Hello, I am looking for reported growth with 786-0 renal for "COC(=O)/C=C\C(=O)OC" . Could you help?
[reply] 103

[ask] Hello, I am looking for reported growth with 786-0 renal for "CSC(=N\N=C\c1ccc(N(C)C)cc1)/N=C/N(C)C" . Could you help?
[reply] 103

[ask] Hello, I am looking for reported growth with 786-0 renal for CC(=Nc1ccccc1)C1=C(O)C(Cc2cccc(F)c2)NC1=O (stereo not drawn) . Could you help?
[reply] 15.3

[ask] Hello, I am looking for reported growth with 786-0 renal for "O=C(O)/C=C/C(=O)NCc1ccccc1" . Could you help?
[reply] 98.9

[ask] Hello, I am looking for reported growth with 786-0 renal for CC(=O)OCC1CCCO1 (stereo not drawn) . Could you help?
[reply] 93.5

[ask] Hello, I am looking for reported growth with 786-0 renal for "O=C(O)CCCC(=O)O" . Could you help?
[reply] 106

[ask] Hello, I am looking for reported growth with 786-0 renal for "CC(=O)Nc1cccc(Cl)c1C" . Could you help?
[reply] 96.5

[ask] Hello, I am looking for reported growth with 786-0 renal for "S=c1[nH]ccn1-c1ccccc1Cl" . Could you help?
[reply] 109

---

System: HCC-2998 colon
experiment-summary: NCI-60 one-dose screen, 48 h (100 = growth as untreated, 0 = no growth, -100 = all killed)
details: 10 µM
The panel holds about 83,000 compounds, 20% with a hit somewhere; the sample as a whole holds those more often.
Overview of recorded growth for various molecules
Reply numerically in %, unit not repeated.

// solved cases for growth follow
>  <molecule>
N#Cc1ccc(NC(=O)Nc2cccc(C#N)c2)cc1

>  <readout-number>
95.1

$$$$
>  <molecule>
COC1=CC(=O)c2nc(Cl)ccc2C1=O

>  <readout-number>
100

$$$$

[ask] # lookup: growth of "CN(C)/N=C/c1ccccc1O"
[reply] 117

[ask] # lookup: growth of "CCn1c(=O)n(C)c2c(=O)n(C)c(=O)n(C)c21"
[reply] 87.8

[ask] # lookup: growth of "c1csc(-c2cc(-c3cc(-c4cccs4)[nH]n3)n[nH]2)c1"
[reply] 111

[ask] # lookup: growth of CCOC(=O)C(O)C(O)C(=O)OCC (stereo not drawn)
[reply] 111

[ask] # lookup: growth of COc1cc(C2c3cc4c(cc3C3OC(=O)C2C3CO)OCO4)cc(OC)c1OC (stereo not drawn)
[reply] 19

[ask] # lookup: growth of "CCOC(=O)CSc1c([N+](=O)[O-])ncn1C"
[reply] 107

[ask] # lookup: growth of "OCCN(CCO)C(=S)S"
[reply] 113

[ask] # lookup: growth of Nc1ccccc1SC(CC(=O)c1ccccc1)c1c(Cl)cccc1Cl (stereo not drawn)
[reply] 86.9

[ask] # lookup: growth of "C=CCCCCCCCCCOC(C)=O"
[reply] 98.4

[ask] # lookup: growth of "CCOC(=O)c1cc2cccc(OC)c2oc1=O"
[reply] 108

[ask] # lookup: growth of CC(=O)OCC1CCCO1 (stereo not drawn)
[reply] 84.8

---

Overview of recorded growth for various molecules
System: COLO 205 colon
experiment-summary: NCI-60 one-dose screen, 48 h (100 = growth as untreated, 0 = no growth, -100 = all killed)
details: 10 µM
About 83,000 compounds went through this panel and 20% of them were active in at least one assay; those are over-represented in the sample as a whole.
Reply numerically in %, unit not repeated.

// solved cases for growth follow
>  <molecule>
CC1NC(=O)NC1CCCCCC(=O)O (stereo unspecified)

>  <quantity>
growth

>  <reading-unit>
%

>  <readout-number>
110

$$$$
>  <molecule>
CNc1nc(NC)c2cn[nH]c2n1

>  <quantity>
growth

>  <reading-unit>
%

>  <readout-number>
95.6

$$$$
>  <molecule>
O=c1[nH]cc(Cl)cc1O

>  <quantity>
growth

>  <reading-unit>
%

>  <readout-number>
112

$$$$
>  <molecule>
CN(C)c1ccc(S(=O)(=O)O)cc1

>  <quantity>
growth

>  <reading-unit>
%

>  <readout-number>
102

$$$$
>  <molecule>
Cc1cc(NC(=O)CSCC(=O)O)no1

>  <quantity>
growth

>  <reading-unit>
%

>  <readout-number>
110

$$$$
>  <molecule>
CCC/C=C(\C)C(C)(C#N)C(=O)OCC (stereo unspecified)

>  <quantity>
growth

>  <reading-unit>
%

>  <readout-number>
110

$$$$
>  <molecule>
COc1cc(C(=O)N/N=C/c2cccc([N+](=O)[O-])c2)cc(OC)c1OC

>  <quantity>
growth

>  <reading-unit>
%

>  <readout-number>
30.2

$$$$
>  <molecule>
Nc1nc(N)c2cc(S(=O)(=O)c3cccc(C(F)(F)F)c3)ccc2n1

>  <quantity>
growth

>  <reading-unit>
%

>  <readout-number>
62.5

$$$$

--- query ---
[ask] # lookup: growth of CC(C)OC(C(=O)O)c1ccccc1 (stereo unspecified)
[reply] 111

---

Test system: UACC-62 melanoma
experiment-summary: NCI-60 one-dose screen, 48 h (100 = growth as untreated, 0 = no growth, -100 = all killed)
details: 10 µM unless noted
Protocol: Growth inhibition of the UACC-62 human tumor cell line is measured as a screen for anti-cancer activity. Cells are grown in 96 well plates and exposed to the test compound for 48 hours. Compounds are tested at a single concentration, which is 10^-5 M for most compounds. The reported endpoint is percent growth (GI% or GIPRCNT), where numbers from 0 - 100% represent growth inhibition, and numbers from -100% - 0 represent cell death. For example, a value of 40 represents 60% growth inhibition. […]
Compounds without any hit were thinned out: in the full panel of roughly 83,000, 20% have a hit.
Overview of recorded growth for various compounds
Reply numerically in %, unit not repeated.

// solved cases for growth follow
>  <compound>
CC1CCCCN1C(=S)Nc1ccc(S(=O)(=O)N2CCCCC2)cc1 (stereo not drawn)

>  <growth, %>
95.6

$$$$
>  <compound>
CCOc1ccc2[nH]c(=S)sc2c1

>  <growth, %>
104

$$$$
>  <compound>
c1cc[n+](C2c3ccccc3C([n+]3ccccc3)c3ccccc32)cc1 (stereo not drawn)

>  <growth, %>
67.3

$$$$
>  <compound>
COc1cc(/C=N\Nc2ccccc2)ccc1OC(=O)c1ccccc1

>  <growth, %>
24.4

$$$$
>  <compound>
CCCC(=O)c1cc(C)ccc1OC

>  <growth, %>
95.5

$$$$
>  <compound>
[O-][N+](=Nc1cccc(Cl)c1)c1cccc(Cl)c1

>  <growth, %>
87.5

$$$$

[ask] # lookup: growth of Nc1ccccc1SC(CC(=O)c1ccccc1)c1c(Cl)cccc1Cl (stereo not drawn)
[reply] 73.9

[ask] # lookup: growth of "c1ncc2[nH]cnc2n1"
[reply] 91.9

[ask] # lookup: growth of "Cc1cc(NC(=O)CSCC(=O)O)no1"
[reply] 94.7

[ask] # lookup: growth of "Cc1cccc(CO)c1"
[reply] 104

[ask] # lookup: growth of "O=[N+]([O-])c1ccccc1S(=O)c1ccccc1[N+](=O)[O-]"
[reply] 83.3

[ask] # lookup: growth of "O=c1[nH]nc(SC2CCCCC2)c(=O)[nH]1"
[reply] 113

[ask] # lookup: growth of O=P(O)(O)OCC(O)CO (stereo not drawn)
[reply] 108
